# Tested on: HeLa MZ
# protocol: whole-cell filipin (free cholesterol) integrated intensity, Z-score; higher = more cholesterol staining
# settings: compound concentration in added solution (µM; 5 µl added to 20 µl cells): 10; 18 h
Where a name gives a salt, the structure may show the parent alone.
Rule: TRUE for whole-cell filipin (z-score) not less than -0.1, FALSE for anything less.

// query Check the entry CN[C@@H]1[C@H](O[C@H]2[C@H](O[C@H]3[C@H](O)[C@@H](O)[C@H](N=C(N)N)[C@@H](O)[C@@H]3N=C(N)N)O[C@@H](C)[C@]2(O)C=O)O[C@@H](CO)[C@H](O)[C@H]1O [Streptomycin sulfate] : does whole-cell filipin (z-score) equal or exceed -0.1?
// result FALSE

// query Check the entry CCOc1ccccc1OC(c1ccccc1)C1CNCCO1 (centres undefined) [Reboxetine mesylate] : does whole-cell filipin (z-score) equal or exceed -0.1?
// result FALSE

// query Check the entry CO[C@@]1(NC(=O)Cc2cccs2)C(=O)N2C(C(=O)O)=C(COC(N)=O)CS[C@@H]21 [Cefoxitin sodium salt] : does whole-cell filipin (z-score) equal or exceed -0.1?
// result FALSE

// query Check the entry CC(C)(C)NCC(O)c1ccc(O)c(CO)c1 (centres undefined) [Salbutamol] : does whole-cell filipin (z-score) equal or exceed -0.1?
// result FALSE

// query Check the entry Nc1c(Br)cc(Br)cc1CN[C@H]1CC[C@H](O)CC1 [Ambroxol hydrochloride] : does whole-cell filipin (z-score) equal or exceed -0.1?
// result FALSE

// query Check the entry COc1ccccc1OCC(O)CN1CCN(CC(=O)Nc2c(C)cccc2C)CC1 (centres undefined) [Ranolazine] : does whole-cell filipin (z-score) equal or exceed -0.1?
// result FALSE

// query Check the entry C=CCc1ccccc1OCC(O)CNC(C)C (centres undefined) [Alprenolol hydrochloride] : does whole-cell filipin (z-score) equal or exceed -0.1?
// result TRUE

// query Check the entry CN1CCN(CC(=O)N2c3ccccc3C(=O)Nc3cccnc32)CC1 [Pirenzepine dihydrochloride] : does whole-cell filipin (z-score) equal or exceed -0.1?
// result FALSE

// query Check the entry Cc1ccc(-c2cc(C(F)(F)F)nn2-c2ccc(S(N)(=O)=O)cc2)cc1 [Celecoxib] : does whole-cell filipin (z-score) equal or exceed -0.1?
// result TRUE

// query Check the entry Cn1c(=O)c2c(ncn2C)n(C)c1=O [Caffeine] : does whole-cell filipin (z-score) equal or exceed -0.1?
// result TRUE

// query Check the entry CCCCc1nc(Cl)c(CO)n1Cc1ccc(-c2ccccc2-c2nnn[nH]2)cc1 [Losartan] : does whole-cell filipin (z-score) equal or exceed -0.1?
// result FALSE

// query Check the entry Cc1noc(NS(=O)(=O)c2ccc(N)cc2)c1C [Sulfisoxazole] : does whole-cell filipin (z-score) equal or exceed -0.1?
// result FALSE

// query Check the entry CCOC(=O)C1=C(COCCN)NC(C)=C(C(=O)OC)C1c1ccccc1Cl (centres undefined) [Amlodipine] : does whole-cell filipin (z-score) equal or exceed -0.1?
// result TRUE

// query Check the entry CN1[C@@H]2CC[C@H]1C[C@@H](OC(c1ccccc1)c1ccccc1)C2 [Benztropine mesylate] : does whole-cell filipin (z-score) equal or exceed -0.1?
// result TRUE

// query Check the entry COc1c(O[C@@H]2O[C@H](CO)[C@@H](O)[C@H](O)[C@H]2O)cc2c(c1OC)-c1ccc(SC)c(=O)cc1[C@@H](NC(C)=O)CC2 [Thiocolchicoside] : does whole-cell filipin (z-score) equal or exceed -0.1?
// result FALSE

// query Check the entry CCOC(=O)[N-]c1c[n+](N2CCOCC2)no1 [Molsidomine] : does whole-cell filipin (z-score) equal or exceed -0.1?
// result FALSE

// query Check the entry NC1CCN(c2nc3c(cc2F)c(=O)c(C(=O)O)cn3-c2ccc(F)cc2F)C1 (centres undefined) [Tosufloxacin hydrochloride] : does whole-cell filipin (z-score) equal or exceed -0.1?
// result FALSE

// query Check the entry CCc1cccc(CC)c1NC(=O)CN(CC(=O)O)CC(=O)O [Etifenin] : does whole-cell filipin (z-score) equal or exceed -0.1?
// result FALSE

// query Check the entry Cc1ccc(-c2ncc(Cl)cc2-c2ccc(S(C)(=O)=O)cc2)cn1 [Etoricoxib] : does whole-cell filipin (z-score) equal or exceed -0.1?
// result FALSE

// query Check the entry OC(CCN1CCCCC1)(c1ccccc1)C1CCCCC1 (centres undefined) [Trihexyphenidyl-D,L Hydrochloride] : does whole-cell filipin (z-score) equal or exceed -0.1?
// result FALSE

// query Check the entry COc1cc([S+](C)[O-])ccc1-c1nc2cccnc2[nH]1 (centres undefined) [Sulmazole] : does whole-cell filipin (z-score) equal or exceed -0.1?
// result FALSE

// query Check the entry CN(C)CCCN1c2ccccc2Sc2ccc(Cl)cc21 [Chlorpromazine hydrochloride] : does whole-cell filipin (z-score) equal or exceed -0.1?
// result TRUE

// query Check the entry CC(CN(C)C)C(C)(O)Cc1ccc(Cl)cc1 (centres undefined) [Clobutinol hydrochloride] : does whole-cell filipin (z-score) equal or exceed -0.1?
// result FALSE

// query Check the entry CSc1ccc2c(c1)C(N1CCN(C)CC1)Cc1ccccc1S2 (centres undefined) [Methiothepin maleate] : does whole-cell filipin (z-score) equal or exceed -0.1?
// result TRUE

// query Check the entry CC(=O)[C@H]1CC[C@H]2[C@@H]3CC=C4C[C@@H](O)CC[C@]4(C)[C@H]3CC[C@]12C [Pregnenolone] : does whole-cell filipin (z-score) equal or exceed -0.1?
// result TRUE

// query Check the entry CC1=C(CC(=O)O)c2cc(F)ccc2/C1=C\c1ccc([S+](C)[O-])cc1 (centres undefined) [Sulindac] : does whole-cell filipin (z-score) equal or exceed -0.1?
// result FALSE

// query Check the entry N[C@H]1CONC1=O [(S)-(-)-Cycloserine] : does whole-cell filipin (z-score) equal or exceed -0.1?
// result FALSE

// query Check the entry Cc1cccc(CN2CCN(C(c3ccccc3)c3ccc(Cl)cc3)CC2)c1 (centres undefined) [Meclozine dihydrochloride] : does whole-cell filipin (z-score) equal or exceed -0.1?
// result FALSE

// query Check the entry C[C@H](N)[C@H](O)c1cccc(O)c1 [Metaraminol bitartrate] : does whole-cell filipin (z-score) equal or exceed -0.1?
// result FALSE

// query Check the entry CN(C(=O)C(Cl)Cl)c1ccc(OC(=O)c2ccco2)cc1 [Diloxanide furoate] : does whole-cell filipin (z-score) equal or exceed -0.1?
// result FALSE

// query Check the entry CCN(CC)CCOC(=O)C(c1ccccc1)c1ccccc1 [Adiphenine hydrochloride] : does whole-cell filipin (z-score) equal or exceed -0.1?
// result FALSE

// query Check the entry COc1ccc(C(=O)NCc2cccnc2)cc1C(=O)NCc1cccnc1 [Picotamide monohydrate] : does whole-cell filipin (z-score) equal or exceed -0.1?
// result TRUE

// query Check the entry NC1CCN(c2c(F)cc3c(=O)c(C(=O)O)cn(C4CC4)c3c2Cl)C1 (centres undefined) [Clinafloxacin] : does whole-cell filipin (z-score) equal or exceed -0.1?
// result FALSE

// query Check the entry Nc1nc(=S)c2ncn([C@@H]3O[C@H](CO)[C@@H](O)[C@H]3O)c2[nH]1 [Thioguanosine] : does whole-cell filipin (z-score) equal or exceed -0.1?
// result FALSE
